Assay: Plasma and tissue pharmacokinetics of prodrug 42 in H1975 tumour bearing mice
Type: in vivo
Conditions: female, NIH-III, mouse, plasma, 20 umol/kg; single iv dose of 42 at 20 μmol/kg; read-out: AUC0-24 hr Plasma, 42
Procedure: Compound 42 was dosed at a nominal low dose of 20 μmol/kg to nine female NIH-III mice bearing H1975 tumour xenografts, as a solution in DMSO/5% dextrose (20:80) via intravenous injection. […] The frozen powders were then collected in pre-weighed microcentrifuge tubes (kept on dry ice). Four volumes of ice cold acetonitrile (containing 0.5 μM D6-161 as an internal standard) was added to each sample to extract the drug from the tissue powder. […]
valueKind: AUC(0-t) (µM·h)

{"structureSmiles": "Cn1cnc([N+](=O)[O-])c1C[N+](C)(C)C/C=C/C(=O)Nc1cc2c(Nc3ccc(F)c(Br)c3)ncnc2cn1", "valueKind": "AUC(0-t)", "measuredResult": 24.7}

The measurements presented in this section are drawn from patent US9073916B2.
